system: 276233-004-R-J1-PDC KRAS spheroids with HUVEC/MSC, viability; test: Anticancer human tumor 276233-004-R-J1-PDC patient-derived colon adenocarcinoma cell line growth inhibition [KRAS2]; conditions: curve of first compound; second compound 0.1 µM
Here, each record is paired with measured IC50 data.

>  <Compound>
CC1OCC2(CCN(c3cnc(Sc4ccnc(N)c4Cl)c(N)n3)CC2)C1N (stereo not given) + C=CC(=O)N1CCN(c2nc(OCC3CCCN3C)nc3c2CCN(c2cccc4cccc(C)c24)C3)CC1CC#N

>  <IC50>
> 10 µM

$$$$
>  <Compound>
CC(C)NCC(C(=O)N1CCN(c2ncnc3c2C(C)CC3O)CC1)c1ccc(Cl)cc1 (stereo not given) + CNCc1ccccc1-c1csc(C(C)Nc2nc(C)nc3cc(OC)c(OC)cc23)c1

>  <IC50>
> 10 µM

$$$$
>  <Compound>
CCNC(=O)CC1N=C(c2ccc(Cl)cc2)c2cc(OC)ccc2-n2c(C)nnc21 (stereo not given) + CC1OCC2(CCN(c3cnc(Sc4ccnc(N)c4Cl)c(N)n3)CC2)C1N

>  <IC50>
> 10 µM

$$$$
>  <Compound>
CCN1CCN(Cc2ccc(Nc3ncc(F)c(-c4cc(F)c5nc(C)n(C(C)C)c5c4)n3)nc2)CC1 + C=CC(=O)N1CCN(c2nc(=O)n(-c3c(C)ccnc3C(C)C)c3nc(-c4c(O)cccc4F)c(F)cc23)C(C)C1

>  <IC50>
> 1 µM

$$$$
>  <Compound>
COC(=O)c1ccc2c(C(=Nc3ccc(N(C)C(=O)CN4CCN(C)CC4)cc3)c3ccccc3)c(O)[nH]c2c1 + C=CC(=O)N1CCN(c2nc(OCC3CCCN3C)nc3c2CCN(c2cccc4cccc(C)c24)C3)CC1CC#N

>  <IC50>
> 10 µM

$$$$
>  <Compound>
CC(=O)OC12COC1CC(O)C1(C)C(=O)C(O)C3=C(C)C(OC(=O)C(O)C(NC(=O)OC(C)(C)C)c4ccccc4)CC(O)(C(OC(=O)c4ccccc4)C21)C3(C)C (stereo not given) + CNCc1ccccc1-c1csc(C(C)Nc2nc(C)nc3cc(OC)c(OC)cc23)c1

>  <IC50>
> 3.16 µM

$$$$
>  <Compound>
CC(C)n1nc(-c2ccc3oc(N)nc3c2)c2c(N)ncnc21 + C=CC(=O)N1CCN(c2nc(OCC3CCCN3C)nc3c2CCN(c2cccc4cccc(C)c24)C3)CC1CC#N

>  <IC50>
> 0.1 µM

$$$$
>  <Compound>
COc1cc2nccc(Oc3ccc(NC(=O)C4(C(=O)Nc5ccc(F)cc5)CC4)cc3)c2cc1OC + C=CC(=O)N1CCN(c2nc(OCC3CCCN3C)nc3c2CCN(c2cccc4cccc(C)c24)C3)CC1CC#N

>  <IC50>
> 10 µM

$$$$
>  <Compound>
CC(=O)Nc1cccc(-n2c(=O)n(C3CC3)c(=O)c3c(Nc4ccc(I)cc4F)n(C)c(=O)c(C)c32)c1 + C=CC(=O)N1CCN(c2nc(=O)n(-c3c(C)ccnc3C(C)C)c3nc(-c4c(O)cccc4F)c(F)cc23)C(C)C1

>  <IC50>
0.00644 µM

$$$$
>  <Compound>
Cn1nccc1Nc1nccc(-c2cc3c(s2)C(C)(C)N(CCN2CCOCC2)C3=O)n1 + COc1cc2nc(C)nc(NC(C)c3cc(N)cc(C(F)(F)F)c3)c2cc1OC1CCOC1

>  <IC50>
1.72 µM

$$$$
>  <Compound>
CCN1CCN(Cc2ccc(Nc3ncc(F)c(-c4cc(F)c5nc(C)n(C(C)C)c5c4)n3)nc2)CC1 + COc1cc2nc(C)nc(NC(C)c3cc(N)cc(C(F)(F)F)c3)c2cc1OC1CCOC1

>  <IC50>
> 1 µM

$$$$
>  <Compound>
CC(C)NCC(C(=O)N1CCN(c2ncnc3c2C(C)CC3O)CC1)c1ccc(Cl)cc1 (stereo not given) + C=CC(=O)N1CCN(c2nc(OCC3CCCN3C)nc3c2CCN(c2cccc4cccc(C)c24)C3)CC1CC#N

>  <IC50>
> 10 µM

$$$$
>  <Compound>
CCNC(=O)CC1N=C(c2ccc(Cl)cc2)c2cc(OC)ccc2-n2c(C)nnc21 (stereo not given) + CNCc1ccccc1-c1csc(C(C)Nc2nc(C)nc3cc(OC)c(OC)cc23)c1

>  <IC50>
> 10 µM

$$$$
>  <Compound>
CC1COCCN1c1cc(-c2ccnn2C)c2ccnc(-c3ccn[nH]3)c2n1 (stereo not given) + C=CC(=O)N1CCN(c2nc(=O)n(-c3c(C)ccnc3C(C)C)c3nc(-c4c(O)cccc4F)c(F)cc23)C(C)C1

>  <IC50>
> 3.16 µM

$$$$
>  <Compound>
Cn1ncnc1[C@H]1c2n[nH]c(=O)c3cc(F)cc(c23)N[C@@H]1c1ccc(F)cc1 + CNCc1ccccc1-c1csc(C(C)Nc2nc(C)nc3cc(OC)c(OC)cc23)c1

>  <IC50>
> 0.1 µM

$$$$
>  <Compound>
COc1cc2nccc(Oc3ccc(NC(=O)C4(C(=O)Nc5ccc(F)cc5)CC4)cc3)c2cc1OC + CNCc1ccccc1-c1csc(C(C)Nc2nc(C)nc3cc(OC)c(OC)cc23)c1

>  <IC50>
> 10 µM

$$$$
>  <Compound>
CC1COCCN1c1cc(-c2ccnn2C)c2ccnc(-c3ccn[nH]3)c2n1 (stereo not given) + CNCc1ccccc1-c1csc(C(C)Nc2nc(C)nc3cc(OC)c(OC)cc23)c1

>  <IC50>
> 3.16 µM

$$$$
>  <Compound>
COC(=O)c1ccc2c(C(=Nc3ccc(N(C)C(=O)CN4CCN(C)CC4)cc3)c3ccccc3)c(O)[nH]c2c1 + CC1OCC2(CCN(c3cnc(Sc4ccnc(N)c4Cl)c(N)n3)CC2)C1N

>  <IC50>
> 10 µM

$$$$
>  <Compound>
COc1cc2nccc(Oc3ccc(NC(=O)C4(C(=O)Nc5ccc(F)cc5)CC4)cc3)c2cc1OC + COc1cc2nc(C)nc(NC(C)c3cc(N)cc(C(F)(F)F)c3)c2cc1OC1CCOC1

>  <IC50>
> 10 µM

$$$$
>  <Compound>
CC(=O)OC12COC1CC(O)C1(C)C(=O)C(O)C3=C(C)C(OC(=O)C(O)C(NC(=O)OC(C)(C)C)c4ccccc4)CC(O)(C(OC(=O)c4ccccc4)C21)C3(C)C (stereo not given) + C=CC(=O)N1CCN(c2nc(OCC3CCCN3C)nc3c2CCN(c2cccc4cccc(C)c24)C3)CC1CC#N

>  <IC50>
> 3.16 µM

$$$$

----------
system: 276233-004-R-J1-PDC KRAS spheroids with HUVEC/MSC, viability; test: Anticancer human tumor 276233-004-R-J1-PDC cell line growth inhibition [KRAS2]; settings: second compound 10 µM; first compound 0.316 µM; active = viability on the fitted dose curve at most 10% of control; inactive = the rest;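 note: cells exposed to agents for seven days before viability read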
Outcomes: active, inactive

>  <Compound>
O=C(c1cc(Cc2n[nH]c(=O)c3ccccc23)ccc1F)N1CCN(C(=O)C2CC2)CC1 + CNCc1ccccc1-c1csc(C(C)Nc2nc(C)nc3cc(OC)c(OC)cc23)c1

>  <Assigned category>
active

$$$$
>  <Compound>
CCN1CCN(Cc2ccc(Nc3ncc(F)c(-c4cc(F)c5nc(C)n(C(C)C)c5c4)n3)nc2)CC1 + CNCc1ccccc1-c1csc(C(C)Nc2nc(C)nc3cc(OC)c(OC)cc23)c1

>  <Assigned category>
active

$$$$
>  <Compound>
Cn1nccc1Nc1nccc(-c2cc3c(s2)C(C)(C)N(CCN2CCOCC2)C3=O)n1 + CC1OCC2(CCN(c3cnc(Sc4ccnc(N)c4Cl)c(N)n3)CC2)C1N

>  <Assigned category>
inactive

$$$$
>  <Compound>
CC1(C)CCC(CN2CCN(c3ccc(C(=O)NS(=O)(=O)c4ccc(NCC5CCOCC5)c([N+](=O)[O-])c4)c(Oc4cnc5[nH]ccc5c4)c3)CC2)=C(c2ccc(Cl)cc2)C1 + CNCc1ccccc1-c1csc(C(C)Nc2nc(C)nc3cc(OC)c(OC)cc23)c1

>  <Assigned category>
active

$$$$
>  <Compound>
COc1cc(Nc2ncc3c(n2)-c2ccc(Cl)cc2C(c2c(F)cccc2OC)=NC3)ccc1C(=O)O + CNCc1ccccc1-c1csc(C(C)Nc2nc(C)nc3cc(OC)c(OC)cc23)c1

>  <Assigned category>
active

$$$$
>  <Compound>
CC1OCC2(CCN(c3cnc(Sc4ccnc(N)c4Cl)c(N)n3)CC2)C1N (stereo unspecified) + CNCc1ccccc1-c1csc(C(C)Nc2nc(C)nc3cc(OC)c(OC)cc23)c1

>  <Assigned category>
active

$$$$
>  <Compound>
CC(C)NCC(C(=O)N1CCN(c2ncnc3c2C(C)CC3O)CC1)c1ccc(Cl)cc1 (stereo unspecified) + CNCc1ccccc1-c1csc(C(C)Nc2nc(C)nc3cc(OC)c(OC)cc23)c1

>  <Assigned category>
active

$$$$
>  <Compound>
CCNC(=O)CC1N=C(c2ccc(Cl)cc2)c2cc(OC)ccc2-n2c(C)nnc21 (stereo unspecified) + COc1cc2nc(C)nc(NC(C)c3cc(N)cc(C(F)(F)F)c3)c2cc1OC1CCOC1

>  <Assigned category>
inactive

$$$$
>  <Compound>
CC(=O)OC12COC1CC(O)C1(C)C(=O)C(O)C3=C(C)C(OC(=O)C(O)C(NC(=O)OC(C)(C)C)c4ccccc4)CC(O)(C(OC(=O)c4ccccc4)C21)C3(C)C (stereo unspecified) + CC1OCC2(CCN(c3cnc(Sc4ccnc(N)c4Cl)c(N)n3)CC2)C1N

>  <Assigned category>
inactive

$$$$
>  <Compound>
COc1cc(Nc2ncc3c(n2)-c2ccc(Cl)cc2C(c2c(F)cccc2OC)=NC3)ccc1C(=O)O + COc1cc2nc(C)nc(NC(C)c3cc(N)cc(C(F)(F)F)c3)c2cc1OC1CCOC1

>  <Assigned category>
inactive

$$$$
>  <Compound>
CC1COCCN1c1cc(-c2ccnn2C)c2ccnc(-c3ccn[nH]3)c2n1 (stereo unspecified) + COc1cc2nc(C)nc(NC(C)c3cc(N)cc(C(F)(F)F)c3)c2cc1OC1CCOC1

>  <Assigned category>
inactive

$$$$
